- assay-comment: Cytotoxicity in HepG2.117 cells, ATPlite Luminescence Assay
- Format: cell-based, human
- run-conditions: human, incubated for 3 days, mean value, read-out: TOX-HepG2.117 CC50 (μM, mean value)
measured-parameter: CC50 at 3 days

For Cc1nc(CN2CCn3nc4c(c3C2=O)CN(C(=O)c2ccc(Cl)c(Cl)c2)[C@H](C)C4)no1 the compound record lists CC50 at 3 days as > 50 µM

For reference, reported CC50 at 3 days for C[C@@H]1Cc2nn3c(c2CN1C(=O)c1ccc(Cl)c(Cl)c1)C(=O)N(Cc1c(F)cncc1F)CC3 stands at > 50 µM

Query C[C@@H]1Cc2nn3c(c2CN1C(=O)c1ccc(Cl)c(Cl)c1)C(=O)N(Cc1cscn1)CC3 yields CC50 at 3 days of > 50 µM

CC50 at 3 days for CC(c1ccncc1)N1CCn2nc3c(c2C1=O)CN(C(=O)c1ccc(Cl)c(Cl)c1)[C@H](C)C3 (some centres unmarked) is > 12.5 µM

Sample Cc1nc(C)c(CN2CCn3nc4c(c3C2=O)CN(C(=O)c2ccc(Cl)c(Cl)c2)[C@H](C)C4)o1 ; CC50 at 3 days observed: > 50 µM

Short answer for COc1ccc(CN2CC(NS(C)(=O)=O)Cn3nc4c(c3C2=O)CN(C(=O)c2ccc(Cl)c(Cl)c2)CC4)cc1 (centres unmarked) : CC50 at 3 days was > 50 µM

Record CC(c1ccc(C#N)cc1)N1CCn2nc3c(c2C1=O)CN(C(=O)c1ccc(Cl)c(Cl)c1)[C@H](C)C3 (some centres unmarked) , field CC50 at 3 days: > 48 µM

For CC(c1ccc(Cl)nc1)N1CCn2nc3c(c2C1=O)CN(C(=O)c1ccc(Cl)c(Cl)c1)[C@H](C)C3 (some centres unmarked) the compound record lists CC50 at 3 days as 33.7 µM

Per the record, Cc1cc(CN2CCn3nc4c(c3C2=O)CN(C(=O)c2ccc(Cl)c(Cl)c2)[C@H](C)C4)nn1C has CC50 at 3 days of > 50 µM

In plain terms, Cc1noc(CN2CCn3nc4c(c3C2=O)CN(C(=O)c2ccc(Cl)c(Cl)c2)[C@H](C)C4)n1 has a documented CC50 at 3 days of > 50 µM

Entry C[C@@H]1Cc2nn3c(c2CN1C(=O)c1ccc(Cl)c(Cl)c1)C(=O)N([C@@H](C)c1ccc(OC(F)F)cc1)CC3 — recorded CC50 at 3 days = 16.7 µM

C[C@@H]1Cc2nn3c(c2CN1C(=O)c1cc2c(F)c(F)ccc2[nH]1)C(=O)N(Cc1ccccn1)CC3 has a reported CC50 at 3 days of 8.95 µM

// CC50 at 3 days lookup, compound = C[C@@H]1Cc2nn3c(c2CN1C(=O)c1ccc(Cl)c(Cl)c1)C(=O)N(Cc1cc(Cl)cc(C#N)c1)CC3 , result: > 50 µM

CC50 at 3 days measured on C[C@@H]1Cc2nn3c(c2CN1C(=O)c1ccc(Cl)c(Cl)c1)C(=O)N(Cc1ncoc1C(F)(F)F)CC3 = > 50 µM

Sample CC(c1cccc(F)c1)N1CCn2nc3c(c2C1=O)CN(C(=O)c1ccc(Cl)c(Cl)c1)[C@H](C)C3 (some centres unmarked) ; CC50 at 3 days observed: 49.6 µM

Documented CC50 at 3 days of C[C@@H]1Cc2nn3c(c2CN1C(=O)c1ccc(Cl)c(Cl)c1)C(=O)N(Cc1cccnc1)CC3 : > 50 µM

Entry C[C@@H]1Cc2nn3c(c2CN1C(=O)c1ccc(Cl)c(Cl)c1)C(=O)N(Cc1nccn1C(F)F)CC3 — recorded CC50 at 3 days = > 50 µM

// field: CC50 at 3 days; key: COc1ccc(CN2CCn3nc4c(c3C2=O)CN(C(=O)c2ccc(Cl)c(Cl)c2)CC4)cc1 ; value = 17.9 µM

Summary for this compound, C[C@@H]1Cc2nn3c(c2CN1C(=O)c1ccc(Cl)c(Cl)c1)C(=O)N([C@@H](C)c1ccc(C#N)cc1)CC3 (relative stereo) : CC50 at 3 days is > 50 µM

Just so you know, measured CC50 at 3 days for C[C@@H]1Cc2nn3c(c2CN1C(=O)c1ccc(Cl)c(Cl)c1)C(=O)N(Cc1ccnn1C)CC3 came out at > 50 µM

Entry CC(c1cccc(OC(F)(F)F)c1)N1CCn2nc3c(c2C1=O)CN(C(=O)c1ccc(Cl)c(Cl)c1)[C@H](C)C3 (some centres unmarked) ; CC50 at 3 days = 26.4 µM

Noted for Cc1ncc(CN2CCn3nc4c(c3C2=O)CN(C(=O)c2ccc(Cl)c(Cl)c2)[C@H](C)C4)s1 : its CC50 at 3 days reads > 50 µM

get_value(item= C[C@@H]1Cc2nn3c(c2CN1C(=O)c1ccc(Cl)c(C(F)(F)F)c1)C(=O)N(Cc1ccccn1)CC3 , readout=CC50 at 3 days) returns > 50 µM

// recorded CC50 at 3 days for C[C@@H]1Cc2nn3c(c2CN1C(=O)c1ccc(Cl)c(Cl)c1)C(=O)N(Cc1cnn(C)c1)CC3 : > 50 µM

Lookup result for O=C(c1ccc(Cl)c(Cl)c1)N1CCc2nn3c(c2C1)C(=O)N(Cc1cccc2[nH]ccc12)CC3 ; measured CC50 at 3 days: 16.4 µM

Lookup result for C[C@@H]1Cc2nn3c(c2CN1C(=O)c1ccc(Cl)c(Cl)c1)C(=O)N(Cc1ccon1)CC3 ; measured CC50 at 3 days: > 50 µM

The compound listed as COc1ccc(CN2CCn3nc4c(c3C2=O)CN(C(=O)c2cc(F)c(F)c(F)c2)CC4)cc1 shows CC50 at 3 days equal to 28.4 µM

The recorded CC50 at 3 days for Cc1noc(C(C)N2CCn3nc4c(c3C2=O)CN(C(=O)c2ccc(Cl)c(Cl)c2)[C@H](C)C4)n1 (some centres unmarked) is > 50 µM

Reported CC50 at 3 days of CC(C)c1nnc(CN2CCn3nc4c(c3C2=O)CN(C(=O)c2ccc(Cl)c(Cl)c2)[C@H](C)C4)o1 : > 50 µM
